- Test system: LXRa homodimer (NR concentration 270 nM)
- test_protocol: PBM binding z-score (relative to random genomic background probes); higher = stronger binding; sequences stand for … in GC…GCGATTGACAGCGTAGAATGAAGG
Hi there, I'd appreciate the recorded PBM binding z-score for every entry that follows.
Answers are plain numbers.

Example cases with answers are listed next.
# entry_sequence, recorded_number
records = [
    ("CCAACTGGGCCACGAAAGGTCATTGATTCAGTGA", 4.15),
    ("GCTAGCAGGCCATTTGGGTCGCTCAATGACGGGC", -0.846),
    ("CCTATTGGTTGACCATAAGGGCAACCGAAGCTCG", -0.255),
    ("CAAACTAGGTCACGAAAGGTTAAAGTCGAATGAC", 3.46),
    ("TCTAGTTGTTCACGGAGGTCACACACGACGGGTA", 2.83),
    ("AGTCAAAGTTCAGGACGAGGTAACGTGAAGCACG", 1),
    ("CCTCGGAGGACAGAAGGTCACAGCTGTCCGCTTT", 0.899),
    ("TCATATAGGTAAACAGGTGAAAGACCGTAAGTTA", 0.26),
    ("CGAACTAGGTCATCCAGGACAGTGGATACATTGA", 0.245),
    ("TGAATGCGGTTATAAGATCAGGGAACGTTGCAAA", -0.342),
]

Provide reported PBM binding z-score for each item, in the same order as listed.
1. CCGACTGGGGCATGGTTACCATAACGCACAGCCA
2. CCTTACGGGTCACGAGGTTATTGCACGACGAGCG

Output line:
-0.461
0.946

----------
- Test system: LXRa:RXRa (NR concentration 270 nM, RXRa partner concentration 90 nM)
- test_protocol: PBM binding z-score (relative to random genomic background probes); higher = stronger binding; sequences stand for … in GC…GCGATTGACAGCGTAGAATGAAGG
Classify as follows. Reported PBM binding z-score greater than or equal to 1: true (1). Reported PBM binding z-score below: false (0).

Example cases with answers are listed next.
# entry_sequence, label_class
measured = [
    ("ACTATTAGTTGAAACGAGGGCAACCGATAGGTTG", "false (0)"),
    ("AATACAGGGTCATCGTAGGCCACAGTACGCACAG", "true (1)"),
    ("TAGCCTAGGTCATTCAGGGGCCAGTATTGAAAGC", "true (1)"),
    ("TCATATAGGTAATACAGGTGAAATTCGGCATCTA", "true (1)"),
    ("TCTGGCAGGCCAGAGGGTCACTCAAGAGGTACGG", "true (1)"),
    ("AGTCAAAGTTCAGGACGTGGTAACGTAAAGCACG", "true (1)"),
    ("CCTTACGGGTCACTCCCGGTTATAGCATCGGAGT", "true (1)"),
    ("TCTTTTAGATCAATAGAGGTTAAGAAAGTGCGCT", "true (1)"),
]

Input line: # check: PBM binding z-score of `CAAGACAGGTGAAAGGTAACTCAGTCTGGTACGC` is greater than or equal to 1
Output line: true (1)

Input line: # check: PBM binding z-score of `GTAGCAAGGTGAATAGGTCGTTGATGAGTAGGCG` is greater than or equal to 1
Output line: false (0)

Input line: # check: PBM binding z-score of `ACAGACAGGTGGTGAAGGTAACTCAGGCTATCAT` is greater than or equal to 1
Output line: false (0)

----------
- Tested on: PPARa:RXRa (NR concentration 270 nM, RXRa partner concentration 90 nM)
- test_protocol: PBM binding z-score (relative to random genomic background probes); higher = stronger binding; sequences stand for … in GC…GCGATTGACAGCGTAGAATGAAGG
Classify as follows. Reported PBM binding z-score greater than or equal to 4: yes. Reported PBM binding z-score below: no.

Example cases with answers are listed next.
# entry_sequence, study_target, label_class
rows = [
    ("CAAACTAGGTTAAGGTCAAAGTCGGTTTGTGCCA", "PPARa:RXRa (NR concentration 270 nM, RXRa partner concentration 90 nM)", "yes"),
    ("CGTCCAAGGTCAATGCTAGGGCAGTGAAAGCATT", "PPARa:RXRa (NR concentration 270 nM, RXRa partner concentration 90 nM)", "yes"),
    ("CCTAGTTGGTCAAGGACACACACGCTATAGGTAC", "PPARa:RXRa (NR concentration 270 nM, RXRa partner concentration 90 nM)", "no"),
]

Input line: # check: PBM binding z-score of `CCTGCTAGGTCGATGGTCAGCTAAAGCAGCTCGC` is greater than or equal to 4
Output line: no

Input line: # check: PBM binding z-score of `CCTTACGGGTCGCGAGGTTATAGCACGACGAGCG` is greater than or equal to 4
Output line: no

Input line: # check: PBM binding z-score of `TGTAGTTGGTCACGGAGGTCACACACGACGGGTA` is greater than or equal to 4
Output line: no

Input line: # check: PBM binding z-score of `GCTGCTAGGTCAGGTTGGTCCGCTAACGGGTACG` is greater than or equal to 4
Output line: no

Input line: # check: PBM binding z-score of `GCTTGTAGATCAAGGTTAAGAAAGACTAAGCTAA` is greater than or equal to 4
Output line: no

----------
- System: RARg:RXRa (NR concentration 270 nM, RXRa partner concentration 90 nM)
- test_protocol: PBM binding z-score (relative to random genomic background probes); higher = stronger binding; sequences stand for … in GC…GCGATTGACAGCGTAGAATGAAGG
Each entry falls into one class according to its PBM binding z-score; the ranges are L = under 0.6, M = from 0.6 up to 5, H = 5 and over

Example cases with answers are listed next.
# entry_sequence, label_class
rows = [
    ("CAAACTAGGTCAATAGGTCAAAGTCCGCTTCCCG", "H"),
    ("ACAGACAGGTGATGAAGGTGACTCAGGCTATCAT", "M"),
    ("CCTATTAGTGGACCATAAGGGCAACCGAAGCTCG", "L"),
    ("GCAGACAGGTGAAACGCAGGTAACTCACGGTGGC", "M"),
    ("CCTCCTGGGCCATTCAGAGGTCATTGATCATATG", "M"),
]

Input line: Using the reported PBM binding z-score, which band applies to `TCGAGTAGGTTAGTCGGGGCATTCAACCAACATA` ?
Output line: L

Input line: Using the reported PBM binding z-score, which band applies to `ATCTCTAGGTAAAAGTTCACTGAATCCCGAGGAT` ?
Output line: M

Input line: Using the reported PBM binding z-score, which band applies to `TCATAAAGGTAAAAGGTGAAAGTCGGTGTGGTAA` ?
Output line: M

Input line: Using the reported PBM binding z-score, which band applies to `CGGCAAAGTTCAACTAAGGTAACGTAAAGCACGC` ?
Output line: H

Input line: Using the reported PBM binding z-score, which band applies to `CTACCAAGGTGAACAAGGTCGTTTATTACTATTC` ?
Output line: M

Input line: Using the reported PBM binding z-score, which band applies to `CCTTACGGGTCACTGACAGTTTATAGCATTTGGA` ?
Output line: H

----------
- System: VDR homodimer (NR concentration 270 nM)
- test_protocol: PBM binding z-score (relative to random genomic background probes); higher = stronger binding; sequences stand for … in GC…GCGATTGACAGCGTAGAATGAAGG
Hi there, I'd appreciate the recorded PBM binding z-score for every entry that follows.
One number for each entry.

Example cases with answers are listed next.
# entry_sequence, parameter, recorded_number
records = [
    ("TCTCGGAGGACACGAATGGTCAGAGCTCGACATC", "PBM binding z-score", -0.606),
    ("TTACCAAGGTGAGCTGATGTCGTTGATCCAACTC", "PBM binding z-score", -0.492),
    ("CCGAGTGGGGCAAGGTTACCATAACGCACAGCCA", "PBM binding z-score", 0.121),
    ("GCACGGAGGACAAGGTCAGAGCTTTGTCCGTAGA", "PBM binding z-score", 0.622),
    ("GAACCAAGGTGAATAGGTCGTTGATGAGTAGGCG", "PBM binding z-score", -0.00141),
]

Provide reported PBM binding z-score for each item, in the same order as listed.
1. TGACAAAGTTCAAAGGTAACGTAAGTATCCACAC
2. ATAATGAGGTTAAGATCAGGGAAACAGAATACAT
3. GGAACGAGGACATTCGAGTTGATAGCATGGCGAT
4. CCTACAGGGCCATCAGGTCATTGATATCAACGTT

Output line:
1. 4.23
2. 0.406
3. 1.65
4. 1.45

Provide reported PBM binding z-score for each item, in the same order as listed.
1. GCTCGTAGGACAAGGTCAGAGCTTTGTCCGTAGA
2. GCAGACAGGTGAAACGCAGGTAAATCAGGGTGGC
3. CCGACTGGGGCAGAAAGGTTACAATACCATCCGG

Output line:
[0.106, -0.336, 0.0532]

Reference source: the supplement of paper PMC6555819
